Give EC50 for every item shown.
test system: SK-MEL-2; assay: Cytotoxicity against human SK-MEL-2 cells after 3 days by sulforhodamine B assay; assay type: functional; settings: SK-MEL-2, 72 h, read-out: ED50 (the source's name)
Answers are plain numbers, in µg/mL.

Solved entries:
smilesstring=CO[C@H]1C=C[C@@]23c4cc5c(cc4CN(C[C@@H]2O)[C@H]3C1)OCO5 testtarget=SK-MEL-2 datavalue=5
smilesstring=O[C@H]1[C@H]2c3cc4c(cc3CN3CCC(=C[C@@H]1O)[C@H]23)OCO4 testtarget=SK-MEL-2 datavalue=1.6

EC50 reported for this molecule `CO[C@@H]1C[C@H]2N3CC[C@@]2(c2cc4c(cc2C3)OCO4)[C@H]2O[C@@H]12` : 3.2

---

experiment: Cytotoxicity against human KBV1 cells after 3 days by sulforhodamine B assay; type: functional; settings: KB-V1, 72 h, read-out: ED50 (the source's name)
For each record, write down the corresponding EC50.

Reference set (4 entries):
molecule=CO[C@H]1C=C[C@@]23c4cc5c(cc4CN(C[C@@H]2O)[C@H]3C1)OCO5 measuredquantity=EC50 datavalue="0.6 µg/mL"
molecule=CO[C@@H]1C[C@H]2N3CC[C@@]2(c2cc4c(cc2C3)OCO4)[C@H]2O[C@@H]12 measuredquantity=EC50 datavalue="> 20 µg/mL"
molecule=O[C@@H]1CC[C@H]2N3CC[C@@]2(c2cc4c(cc2C3)OCO4)[C@@H]1O measuredquantity=EC50 datavalue="> 20 µg/mL"
molecule=O[C@H]1[C@H]2c3cc4c(cc3CN3CCC(=C[C@@H]1O)[C@H]23)OCO4 measuredquantity=EC50 datavalue="0.4 µg/mL"

Next molecule, EC50 to be filled in.
Record summary for COC1C=C[C@@]23CCN(Cc4cc5c(cc42)OCO5)[C@@H]3C1 (stereo not given in full) : reported EC50 = 19.8 µg/mL

---

system: Plasmodium falciparum; test: Antimalarial activity after 24 hrs against Plasmodium falciparum W2 infected in type A+ human erythrocytes by [3H]hypoxanthine uptake; format: functional; details: W2, read-out: ED50
measuredQuantity: EC50 (µg/mL)
One number for each entry, in µg/mL.

Give EC50 for all molecules that follow.
1. OC(c1cc(C(F)(F)F)nc2c(C(F)(F)F)cccc12)C1CCCCN1 (stereo not given)
2. O[C@H]1[C@H]2c3cc4c(cc3CN3CCC(=C[C@@H]1O)[C@H]23)OCO4
3. CO[C@@H]1C[C@H]2N3CC[C@@]2(c2cc4c(cc2C3)OCO4)[C@H]2O[C@@H]12
4. CCN(CC)CCCC(C)Nc1ccnc2cc(Cl)ccc12 (stereo not given)
5. C=C[C@H]1CN2CC[C@H]1C[C@H]2[C@H](O)c1ccnc2ccc(OC)cc12

Output:
1. 0.0016
2. 0.3
3. 0.18
4. 0.0112
5. 0.0245

---

Assignment: determine reported EC50 for the given molecules.
assay: Cytotoxicity against human U373 cells after 3 days by sulforhodamine B assay; format: functional, U-373MG ATCC; settings: U373 MG, 72 h, read-out: ED50 (the source's name)
Give bare numbers, in µg/mL.

Use these answered entries as a reference point.
smilesstring=CO[C@H]1C=C[C@@]23c4cc5c(cc4CN(C[C@@H]2O)[C@H]3C1)OCO5 datavalue=0.9
smilesstring=O[C@H]1[C@H]2c3cc4c(cc3CN3CCC(=C[C@@H]1O)[C@H]23)OCO4 datavalue=0.3

// below: EC50 requested for another molecule
EC50 reported for this molecule `CO[C@@H]1C[C@H]2N3CC[C@@]2(c2cc4c(cc2C3)OCO4)[C@H]2O[C@@H]12` : 0.6
